Measured STK11 functional score, listed per entry.
B1: library; numbered along this chain (parent)
chain: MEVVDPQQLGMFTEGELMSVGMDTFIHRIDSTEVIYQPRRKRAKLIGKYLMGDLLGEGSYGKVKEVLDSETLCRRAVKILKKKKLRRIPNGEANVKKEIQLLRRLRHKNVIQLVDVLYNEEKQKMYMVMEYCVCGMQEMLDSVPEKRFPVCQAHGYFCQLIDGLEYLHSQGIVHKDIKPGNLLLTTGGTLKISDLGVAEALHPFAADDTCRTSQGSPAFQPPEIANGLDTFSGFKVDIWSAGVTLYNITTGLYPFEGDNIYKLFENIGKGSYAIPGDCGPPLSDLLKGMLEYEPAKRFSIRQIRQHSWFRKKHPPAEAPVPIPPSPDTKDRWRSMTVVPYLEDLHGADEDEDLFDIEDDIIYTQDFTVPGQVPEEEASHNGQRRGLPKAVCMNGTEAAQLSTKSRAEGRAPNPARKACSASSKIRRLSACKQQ

- Variants of: B1
- ASSAY_EXPLANATION: STK11 functional score (HeLa growth suppression), rescaled enrichment; synonymous median = 1, nonsense median = 0 (normalised score)
- STUDY_CONDITIONS: with HeLa; variant type: missense
READOUT_KIND: STK11 functional score

mutation_code=E57R readout_kind="STK11 functional score" readout_number=1.13
mutation_code=R383W readout_kind="STK11 functional score" readout_number=0.781
mutation_code=P369V readout_kind="STK11 functional score" readout_number=1.21
mutation_code=I99D readout_kind="STK11 functional score" readout_number=0.335
mutation_code=A295F readout_kind="STK11 functional score" readout_number=1.08
mutation_code=A93L readout_kind="STK11 functional score" readout_number=1.12
mutation_code=E121A readout_kind="STK11 functional score" readout_number=0.765
mutation_code=G56I readout_kind="STK11 functional score" readout_number=0.188
mutation_code=K312F readout_kind="STK11 functional score" readout_number=0.982
mutation_code=G187S readout_kind="STK11 functional score" readout_number=1.67
mutation_code=G268Y readout_kind="STK11 functional score" readout_number=1.32
mutation_code=S404V readout_kind="STK11 functional score" readout_number=1.53
mutation_code=G408H readout_kind="STK11 functional score" readout_number=1.63
mutation_code=L290T readout_kind="STK11 functional score" readout_number=1.07
mutation_code=R39E readout_kind="STK11 functional score" readout_number=-0.363
mutation_code=S59Q readout_kind="STK11 functional score" readout_number=1.63
mutation_code=E374R readout_kind="STK11 functional score" readout_number=1.61
mutation_code=H379V readout_kind="STK11 functional score" readout_number=1.46
mutation_code=T212Q readout_kind="STK11 functional score" readout_number=1.65
mutation_code=K388P readout_kind="STK11 functional score" readout_number=0.884
mutation_code=G171S readout_kind="STK11 functional score" readout_number=1.41
mutation_code=K312T readout_kind="STK11 functional score" readout_number=1.5
mutation_code=N94D readout_kind="STK11 functional score" readout_number=1.31
mutation_code=N380Q readout_kind="STK11 functional score" readout_number=1.47
mutation_code=L195T readout_kind="STK11 functional score" readout_number=1.67
mutation_code=A273H readout_kind="STK11 functional score" readout_number=0.901
mutation_code=I356E readout_kind="STK11 functional score" readout_number=1.62
mutation_code=P339D readout_kind="STK11 functional score" readout_number=1.55
mutation_code=R409M readout_kind="STK11 functional score" readout_number=1.15
mutation_code=H313M readout_kind="STK11 functional score" readout_number=1.25
mutation_code=E138A readout_kind="STK11 functional score" readout_number=1.09
mutation_code=E70P readout_kind="STK11 functional score" readout_number=-0.12
mutation_code=A406Q readout_kind="STK11 functional score" readout_number=1.56
mutation_code=V66M readout_kind="STK11 functional score" readout_number=-0.0689
mutation_code=V372G readout_kind="STK11 functional score" readout_number=1.09
mutation_code=K175G readout_kind="STK11 functional score" readout_number=0.847
mutation_code=P294S readout_kind="STK11 functional score" readout_number=0.67
mutation_code=L245T readout_kind="STK11 functional score" readout_number=-0.038
mutation_code=V320T readout_kind="STK11 functional score" readout_number=1.57
mutation_code=E351S readout_kind="STK11 functional score" readout_number=1.4
mutation_code=G370L readout_kind="STK11 functional score" readout_number=1.42
mutation_code=G408A readout_kind="STK11 functional score" readout_number=1.61
mutation_code=D355V readout_kind="STK11 functional score" readout_number=1.14
mutation_code=V4T readout_kind="STK11 functional score" readout_number=1.06
mutation_code=D68Y readout_kind="STK11 functional score" readout_number=-0.0799
mutation_code=H313E readout_kind="STK11 functional score" readout_number=1.43
mutation_code=P387V readout_kind="STK11 functional score" readout_number=1.13
mutation_code=Q364F readout_kind="STK11 functional score" readout_number=1.28
mutation_code=P387I readout_kind="STK11 functional score" readout_number=1.54
mutation_code=M127I readout_kind="STK11 functional score" readout_number=0.605
mutation_code=H154N readout_kind="STK11 functional score" readout_number=0.196
mutation_code=L386N readout_kind="STK11 functional score" readout_number=0.528
mutation_code=G394R readout_kind="STK11 functional score" readout_number=1.17
mutation_code=G155R readout_kind="STK11 functional score" readout_number=0.742
mutation_code=G135N readout_kind="STK11 functional score" readout_number=1.7
mutation_code=I177R readout_kind="STK11 functional score" readout_number=-0.0129
mutation_code=Q214R readout_kind="STK11 functional score" readout_number=1.45
mutation_code=F219L readout_kind="STK11 functional score" readout_number=1.11
mutation_code=V114Y readout_kind="STK11 functional score" readout_number=1.59
mutation_code=Y253E readout_kind="STK11 functional score" readout_number=1
mutation_code=A347S readout_kind="STK11 functional score" readout_number=1.42
mutation_code=F354M readout_kind="STK11 functional score" readout_number=1.51
mutation_code=K329A readout_kind="STK11 functional score" readout_number=1.58
mutation_code=T185F readout_kind="STK11 functional score" readout_number=0.993
mutation_code=S240P readout_kind="STK11 functional score" readout_number=-0.0488
mutation_code=A389I readout_kind="STK11 functional score" readout_number=1.59
mutation_code=D348R readout_kind="STK11 functional score" readout_number=1.2
mutation_code=F12L readout_kind="STK11 functional score" readout_number=1.23
mutation_code=L17S readout_kind="STK11 functional score" readout_number=1.35
mutation_code=P280I readout_kind="STK11 functional score" readout_number=1.36
mutation_code=R426K readout_kind="STK11 functional score" readout_number=1.49
mutation_code=A200V readout_kind="STK11 functional score" readout_number=0.901
mutation_code=V150A readout_kind="STK11 functional score" readout_number=0.104
mutation_code=R405M readout_kind="STK11 functional score" readout_number=1.6
mutation_code=Y49R readout_kind="STK11 functional score" readout_number=0.545
mutation_code=I46R readout_kind="STK11 functional score" readout_number=0.979
mutation_code=E2K readout_kind="STK11 functional score" readout_number=1.16
mutation_code=N109Q readout_kind="STK11 functional score" readout_number=0.886
mutation_code=D68R readout_kind="STK11 functional score" readout_number=1.07
mutation_code=D359P readout_kind="STK11 functional score" readout_number=1.5
mutation_code=V116A readout_kind="STK11 functional score" readout_number=0.197
mutation_code=G56M readout_kind="STK11 functional score" readout_number=1
mutation_code=E376D readout_kind="STK11 functional score" readout_number=0.267
mutation_code=G279R readout_kind="STK11 functional score" readout_number=0.829
mutation_code=G242F readout_kind="STK11 functional score" readout_number=0.0262
mutation_code=T363D readout_kind="STK11 functional score" readout_number=1.45
mutation_code=Q364R readout_kind="STK11 functional score" readout_number=1.1
mutation_code=K48I readout_kind="STK11 functional score" readout_number=1.34
mutation_code=I248H readout_kind="STK11 functional score" readout_number=-0.139
mutation_code=D284P readout_kind="STK11 functional score" readout_number=0.0198
mutation_code=H154F readout_kind="STK11 functional score" readout_number=0.39
